Form field: Ki (one value per entry).
target: 5HT2A (Homo sapiens); assay: Receptor Selection and Amplification (R-SAT) functional assay; assay type: cell-based; set-up: expressed in transfected cells; host or cells: NIH3T3 cells, pSI mammalian expression vector; conditions: NIH3T3 cells; Ki from IC50 by Cheng and Prussoff; read-out: 5-HT2a (pKi) (R-SAT) (converted)
Sequence (P28223 whole entry): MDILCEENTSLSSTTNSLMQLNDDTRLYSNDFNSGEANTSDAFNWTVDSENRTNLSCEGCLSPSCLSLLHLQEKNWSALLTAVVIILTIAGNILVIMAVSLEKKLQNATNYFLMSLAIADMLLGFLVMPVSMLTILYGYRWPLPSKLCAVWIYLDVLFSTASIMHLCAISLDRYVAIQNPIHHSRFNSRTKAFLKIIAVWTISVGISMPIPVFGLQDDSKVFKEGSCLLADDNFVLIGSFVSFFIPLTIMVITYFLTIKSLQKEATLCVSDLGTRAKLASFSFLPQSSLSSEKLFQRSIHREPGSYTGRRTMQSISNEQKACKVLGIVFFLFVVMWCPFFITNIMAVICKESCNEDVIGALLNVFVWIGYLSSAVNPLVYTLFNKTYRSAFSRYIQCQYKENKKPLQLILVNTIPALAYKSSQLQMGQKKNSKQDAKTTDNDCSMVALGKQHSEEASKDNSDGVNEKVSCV
Endpoint: Ki

query_smiles=CN1CCC(N(Cc2ccc(F)cc2F)C(=O)NCc2ccc3c(c2)CCO3)CC1 assay_value="1 nM"
query_smiles=CC(C)COc1ccc(CNC(=O)N(Cc2ccc(Cl)cc2F)C2CCN(C)CC2)cc1 assay_value="3.98 nM"
query_smiles=CC(C)Oc1ccc(CNC(=O)N(Cc2ccc(F)cc2F)C2CCN(C)CC2)c(F)c1 assay_value="1 nM"
query_smiles=Cc1cc(F)ccc1CN(C(=O)NCc1ccc(OCC(C)C)cc1)C1CCN(C)CC1 assay_value="39.8 nM"
query_smiles=CC(C)COc1ccc(CNC(=O)N(Cc2ccc(Cl)cc2Cl)C2CCNCC2)cc1 assay_value="79.4 nM"
query_smiles=CC(C)Oc1ccc(CNC(=O)N(Cc2ccc(Cl)cc2Cl)C2CCN(C)CC2)cc1 assay_value="50.1 nM"
query_smiles=CC(C)COc1ccc(CNC(=O)N(Cc2c(F)cc(Cl)cc2F)C2CCN(C)CC2)cc1 assay_value="12.6 nM"
